test system: Wolbachia pipientis; assay: Anti-Wolbachia Cell-Based Screen; format: functional; parameters: scale not given: in the data most compounds retested in dose-response had high values; details: 5 µM
Hit rate of the full screen: of about 48,000 compounds, about 13,000 (27%) showed an effect of 50% or more. Some of the results follow.
Measured parameter: Percent Effect (%)
Output spec: scalar in %, unitless text.

Known results for compounds:
Cn1cc(CCCN2CCN(Cc3cccc(O)c3)CC2)cn1 :: 5.998
CCC[C@H]1CN(S(C)(=O)=O)C[C@@H]1NC(=O)CCCn1ccnc1 :: 0.7566
Cc1ccc(N(C)CC(O)COCc2ccccc2)c(C)c1 (stereo not drawn) :: -35.03
Oc1cccc(CN2CCN(C3CCc4ccccc4C3)CC2)c1 (stereo not drawn) :: 111.6

Supply recorded Percent Effect for Cc1ccc(Cl)cc1N1CCC(CNC(=O)CCn2ccnc2)C1 (stereo not drawn) here.
19.22

----------
system: Wolbachia pipientis; experiment: Anti-Wolbachia Cell-Based Screen; type: functional; set-up: scale not given: in the data most compounds retested in dose-response had high values; conditions: 5 µM
The whole screen tested about 48,000 compounds, of which about 13,000 (27%) showed an effect of 50% or more. The list shows a part of the results.
Recorded Percent Effect values for a group of compounds are listed next.
Output spec: scalar in %, unitless text.

# return Percent Effect for CC(C)C1SCC(=O)Nc2c1cnn2-c1ccc(Cl)cc1F (configuration not stated) , test system: Wolbachia pipientis
70.31

# return Percent Effect for COCC1c2nnn(CC3CC3)c2CCN1C(=O)c1ccnnc1 (configuration not stated) , test system: Wolbachia pipientis
-5.349

# return Percent Effect for N#CCCN(CCC#N)C(=O)CN1CCCC1Cc1cccc(F)c1 (configuration not stated) , test system: Wolbachia pipientis
-4.236

# return Percent Effect for Cc1c(C(C)NC2CSCCSC2)cnn1-c1ccc(F)cc1F (configuration not stated) , test system: Wolbachia pipientis
-0.1798

# return Percent Effect for CN(C)C(=O)C1CN(Cc2ccc(C#N)cc2F)c2ccccc2O1 (configuration not stated) , test system: Wolbachia pipientis
-1.206

# return Percent Effect for CC(C)CC1SCC(=O)Nc2c1cnn2C(C)C (configuration not stated) , test system: Wolbachia pipientis
1.479

# return Percent Effect for CC(C)C1SCC(=O)Nc2c1cnn2-c1ccc(Cl)cc1 (configuration not stated) , test system: Wolbachia pipientis
114.3

# return Percent Effect for Cc1noc(C)c1CN(C)Cc1csc(-c2ncccn2)n1 , test system: Wolbachia pipientis
0.1209

# return Percent Effect for COc1ccc(C2CC(=O)Nc3c2cnn3C)cc1 (configuration not stated) , test system: Wolbachia pipientis
32.7

# return Percent Effect for OCCc1cn(CC2CCCN(Cc3nccs3)C2)nn1 (configuration not stated) , test system: Wolbachia pipientis
-2.093

# return Percent Effect for COc1ccc(-n2ncc(C(C)NC3CCSCC3)c2C)cc1 (configuration not stated) , test system: Wolbachia pipientis
-4.294

# return Percent Effect for CN1CCN(Cc2cnn(-c3ccc(F)cc3)c2)[C@H]2CS(=O)(=O)C[C@H]21 , test system: Wolbachia pipientis
-6.219

----------
system: Wolbachia pipientis; assay: Anti-Wolbachia Cell-Based Screen; type: functional; parameters: scale not given: in the data most compounds retested in dose-response had high values; conditions: 5 µM
In all, about 48,000 compounds went through this assay and about 13,000 (27%) showed an effect of 50% or more. This is one part of the list.
Measured parameter: Percent Effect (%)
Output spec: scalar in %, unitless text.

Known results for molecules:
COCCN1CCc2ncc(CNc3cc(N(C)C)ncn3)n2CC1 :: -5.126
O=C(CCNc1ccc(Br)cn1)NCc1ccncc1 :: 2.511
CC(C)NC(=O)c1nc2c(s1)CCCN2c1ccccc1 :: 7.229
CN(Cc1ccco1)Cc1cnc2n1CCN(c1ncccn1)CC2.O=C(O)C(F)(F)F :: 6.885
CCc1cc(C(=O)N2CCC(Nc3ccc(C)nn3)CC2)sc1C :: -9.138

# return Percent Effect for Cc1ccc(N2CCc3sc(C(=O)N4CCOCC4)cc32)nn1 , test system: Wolbachia pipientis
84.11

# return Percent Effect for Cc1ccc(N2CCc3ncc(CNc4ccccn4)n3CC2)nn1 , test system: Wolbachia pipientis
114.5

Values from ChEMBL document CHEMBL3988442
